Compiled literature IC50, tested on mitochondrial RNA-polymerase (POLRMT) (Mus musculus).

CCOC(=O)C(C)Oc1ccc2c(-c3ccc(Cl)cc3)cc(=O)oc2c1 (stereo not shown); 0.1 to 1 µM
C[C@@H](Oc1ccc2c(-c3ccccc3Cl)ccnc2c1)C(=O)N1CCC(CCC(=O)O)CC1; < 0.02 µM
Cc1ccccc1-c1cc(=O)oc2cc(O[C@H](C)C(=O)N3CCC[C@H](C#N)C3)ccc12; < 0.02 µM
C[C@@H](Oc1ccc2c(-c3ccc(F)cc3Cl)ccnc2c1)C(=O)N1CCC(C(=O)O)CC1; 0.02 to 0.1 µM

Q: // lookup IC50 | system=mitochondrial RNA-polymerase (POLRMT) (Mus musculus) | key= CC(Oc1ccc2c(-c3ccccc3Cl)cc(=O)oc2c1)C(=O)N1CCCC(C(=O)O)C1 (stereo not shown)
Ans: < 0.02 µM

Q: // fetch mitochondrial RNA-polymerase (POLRMT) (Mus musculus) IC50 for CC(Oc1ccc2c(-c3ccccc3)cc(=O)oc2c1)C(=O)N(C)C (stereo not shown)
Ans: 0.1 to 1 µM

Q: Test system mitochondrial RNA-polymerase (POLRMT) (Mus musculus); read-out IC50; what value for `CCOC(=O)[C@H]1CCCN(C(=O)[C@@H](C)Oc2ccc3c(-c4ccc(F)cc4Cl)ccnc3c2)C1` ?
Ans: 0.02 to 0.1 µM

Q: # returns recorded IC50 (system: mitochondrial RNA-polymerase (POLRMT) (Mus musculus)) for CCOC(=O)C(C)Oc1cc(F)c2c(-c3ccccc3)cc(=O)oc2c1 (stereo not shown)
Ans: 1 to 10 µM

Q: Recorded IC50 for CC(Oc1ccc2c(-c3cccc(F)c3Cl)cc(=O)oc2c1)C(=O)O (stereo not shown) with mitochondrial RNA-polymerase (POLRMT) (Mus musculus), please?
Ans: 0.02 to 0.1 µM

----------
Reported IC50 against mitochondrial RNA-polymerase (POLRMT) (Mus musculus), gathered from multiple publications, appears below.

Examples with their reported IC50 follow.
Cc1ccccc1-c1cc(=O)oc2cc(OC(C)C(=O)O)ccc12 (stereo not shown); 100 to 1000 nM
CCOCCOC(=O)COc1ccc2c(-c3ccccc3)cc(=O)oc2c1; 1000 to 10000 nM
CCOC(=O)C(C)Oc1ccc2c(-c3ccccc3Cl)cc(=O)oc2c1 (stereo not shown); < 20 nM
CC(Oc1ccc2c(-c3ccc(F)cc3Cl)ccnc2n1)C(=O)N1CCC[C@H](C(=O)O)C1 (mixture of isomers); 100 to 1000 nM
COC(=O)C[C@H]1CCN(C(=O)[C@@H](C)Oc2ccc3c(-c4ccc(F)cc4Cl)ccnc3c2)C1; 100 to 1000 nM

Q: Identify the measured IC50 of CCOC(=O)C(C)Oc1ccc2c(-c3ccc(C)cc3)cc(=O)oc2c1 (stereo not shown) for mitochondrial RNA-polymerase (POLRMT) (Mus musculus).
Ans: 100 to 1000 nM

Q: Notebook: pull reported IC50 for mitochondrial RNA-polymerase (POLRMT) (Mus musculus), entry CNC(=O)C1CCCN(C(=O)C(C)Oc2ccc3c(-c4ccccc4C)cc(=O)oc3c2)C1 (stereo not shown)
Ans: < 20 nM

Q: Please state recorded IC50 (tested on mitochondrial RNA-polymerase (POLRMT) (Mus musculus)) of `CC(C)OC(=O)COc1ccc2c(-c3ccccc3Cl)ccnc2c1`
Ans: 1000 to 10000 nM

Q: Give IC50 (mitochondrial RNA-polymerase (POLRMT) (Mus musculus)) of the following compound: `C[C@@H](Oc1ccc2c(-c3ccc(F)cc3Cl)cc(=O)oc2c1)C(=O)Nc1cccc(C(=O)O)c1`
Ans: < 20 nM

Q: Lab note: need IC50 for CC(Oc1ccc2c(-c3cccc(F)c3Cl)cc(=O)oc2c1)C(=O)N1CCC[C@H](C(=O)O)C1 (stereo partly shown) on mitochondrial RNA-polymerase (POLRMT) (Mus musculus), anyone have it?
Ans: < 20 nM

Q: What is its IC50 for mitochondrial RNA-polymerase (POLRMT) (Mus musculus)? Entry: `C[C@@H](Oc1ccc2c(-c3ccc(F)cc3Cl)cc(Cl)nc2c1)C(=O)N1CCC[C@H](CC(=O)O)C1`
Ans: 100 to 1000 nM

Q: Request body: readout IC50, system mitochondrial RNA-polymerase (POLRMT) (Mus musculus), query `C[C@@H](Oc1ccc2c(-c3ccccc3Cl)ccnc2c1)C(=O)OC(C)(C)C` . Return the value.
Ans: 100 to 1000 nM

Q: Param readout= IC50; system= mitochondrial RNA-polymerase (POLRMT) (Mus musculus); entry= C[C@@H](Oc1ccc2c(-c3ccc(F)cc3Cl)ccnc2c1)C(=O)N1CCCC2(CC2C(=O)O)C1 (stereo partly shown) ; returns value.
Ans: 20 to 100 nM

Q: Item: `C[C@@H](Oc1ccc2c(-c3ccc(F)cc3Cl)cc(=O)oc2c1)C(=O)N1CC[C@@H](CC(=O)O)C1` Test system: mitochondrial RNA-polymerase (POLRMT) (Mus musculus) Read-out: IC50 Value: ?
Ans: < 20 nM

Q: Return IC50 measured with mitochondrial RNA-polymerase (POLRMT) (Mus musculus) given this compound: COC(=O)C1CCCN(C(=O)C(C)Oc2cc3oc(=O)cc(-c4ccccc4)c3cc2Cl)C1 (stereo not shown)
Ans: 100 to 1000 nM

Q: So what IC50 did Cc1ccccc1-c1cc(=O)oc2cc(OC(C)C(=O)Nc3ccc(CCO)cc3)ccc12 (stereo not shown) get with mitochondrial RNA-polymerase (POLRMT) (Mus musculus)?
Ans: < 20 nM
